Would you kindly list inhibition at 6 µM for each of these molecules?
- target.entity: human α-thrombin (Homo sapiens, UniProt P00734)
- test.method.notes: In vitro inhibition of purified human thrombin (hydrolysis of Bz-Phe-Val-Arg-pNa)
- Type: biochemical
- condition.description: inhibitor at 6 μM, [thrombin]=36 nM, [Bz-Phe-Val-Arg-pNa]=66 μM, pH 7.5, 37° C.
Reply with just the number (in %).

Determine its reported inhibition at 6 µM: O=C(NCCCCCCCCNC(=O)c1cccc(NS(=O)(=O)c2ccc3ccccc3c2)c1)c1cccc(NS(=O)(=O)c2ccc3ccccc3c2)c1
20

Identify measured inhibition at 6 µM corresponding to O=C(NCc1cccc(CNC(=O)c2cccc(NS(=O)(=O)c3ccc4ccccc4c3)c2)c1)c1cccc(NS(=O)(=O)c2ccc3ccccc3c2)c1
20

Respond only with inhibition at 6 µM recorded for O=C(NCCCN1CCN(CCCNC(=O)c2cccc(NS(=O)(=O)c3ccc4ccccc4c3)c2)CC1)c1cccc(NS(=O)(=O)c2ccc3ccccc3c2)c1
0

Return the recorded inhibition at 6 µM value; entry: O=C(NCCCCCNC(=O)c1cccc(NS(=O)(=O)c2ccc3ccccc3c2)c1)c1cccc(NS(=O)(=O)c2ccc3ccccc3c2)c1
0
